# test: chemical genetic growth profiling, strain panel (AID 1159580);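 also: tested at 20 µM; growth read once vehicle control cultures reached saturation at 30 °C; 1 = growth at the plate median or of vehicle wells; lower values mean less growth of the strain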
# condition label: S. cerevisiae deletion strains, growth OD, locus YBR229C, strain ROT2, stronger effect = lower value
In all, about 5,500 compounds went through this assay and about 2,000 (36%) were called active. About 18% were inconclusive and are not listed. The list shows a part of the results.
Reported normalized growth by item:

[
  {
    "compound": "CCCCCCCCCCCCCC(=O)OC1C(C)C2(O)C(C=C(CO)CC3(O)C(=O)C(C)=CC32)C2C(C)(C)C12OC(C)=O (stereo not drawn)",
    "normalized growth": "1.02 (inactive)"
  },
  {
    "compound": "CC(=O)OCC(=O)[C@@]1(O)CCC2C3CCC4=CC(=O)C=CC4(C)C3[C@@H](O)C[C@@]21C (stereo partly drawn)",
    "normalized growth": "1.01 (inactive)"
  },
  {
    "compound": "C[C@]12CCC3C(CC[C@H]4C[C@H](O)CC[C@]34C)C1CC[C@@H]2O (stereo partly drawn)",
    "normalized growth": "1.01 (inactive)"
  },
  {
    "compound": "CCC(C)C(=O)c1c(O)c(C)c2oc3c(C)c(O)c(C(=O)C(C)CC)c(O)c3c2c1O (stereo not drawn)",
    "normalized growth": "0.996 (inactive)"
  },
  {
    "compound": "COC(=O)[C@@H]1OC(=O)C2OC23[C@@]1(C)CCC1[C@]2(C)C(C[C@@H](O)[C@]13C)C(C)(C)[C@H](OC(C)=O)C[C@@H]2OC(C)=O (stereo partly drawn)",
    "normalized growth": "1.01 (inactive)"
  }
]

-- ask Returns the measured normalized growth for the input compound. Input: CCOC(=O)c1ccc(Oc2ccc(Cl)cc2Cl)c([N+](=O)[O-])c1
-- reply 0.993 (inactive)

-- ask Name the recorded normalized growth for Cc1onc(-c2ccccc2Cl)c1C(=O)N1CCCN2C(=O)c3ccccc3C21 (stereo not drawn) .
-- reply 0.989 (inactive)

-- ask # input compound: CC(=O)O[C@]1(C)CC[C@@]23CC1C(C)(C)[C@@H]2CC[C@H]3C ; wanted: its normalized growth
-- reply 1 (inactive)

-- ask I am curious: what normalized growth value has been reported for O=NN(CCCl)C(=O)NCCCl ?
-- reply 0.986 (inactive)

-- ask Give its normalized growth value. Item: C[C@]12CCC3c4ccc(OC(=O)CCC(=O)O)cc4CCC3C1CCC2=O (stereo partly drawn)
-- reply 1.01 (inactive)

-- ask Which normalized growth reading was recorded for the compound CC1CCC(NC(=O)N(CCCl)N=O)CC1 (stereo not drawn) ?
-- reply 0.998 (inactive)

-- ask Item CC(=O)C1CC[C@H]2C3CC[C@H]4C[C@H](O)CC[C@]4(C)C3CC[C@]12C (stereo partly drawn) has what recorded normalized growth?
-- reply 0.995 (inactive)

-- ask If you can, please state the reported normalized growth value of NCCCNCCSP(=O)(O)O .
-- reply 1 (inactive)
